Source: patent US20260007612A1

Recorded measurements of Zeta Potential, one per entry
- METHOD_DESCRIPTION: Lipid nanoparticle characterization (size, PDI, zeta potential, encapsulation efficiency)
- Assay type: physicochemical
- CONDITION_CONTEXT: Fresh samples; LNP of named lipid:DSPC:Cholesterol:GM020=50:10:38.5:1.5 (DS-001 25:10:38.5:1.5); 250 μg mRNA
Dear colleague, please return just the value in mV, with no unit written.

Please review the entries below; each comes with its answer.
CCCCCCCCC(CCCCCC)C(=O)OCCCN(CCCOC(=O)C(CCCCCC)CCCCCCCC)C(=S)NCCCN (centres unmarked) [TU-005]
−0.842
CCCCCCCCC(CCCCCC)C(=O)OCCCN(CCCOC(=O)C(CCCCCC)CCCCCCCC)C(=S)NCCCN(CCCC)CCCC (centres unmarked) [TU-009]
−4.40
CCCCCCCCC(CCCCCC)C(=O)OCCCCCCN(CCCCCCOC(=O)C(CCCCCC)CCCCCCCC)CCCCNC(=O)OCCSSCCOC(=O)NCCCCN(CCCCCCOC(=O)C(CCCCCC)CCCCCCCC)CCCCCCOC(=O)C(CCCCCC)CCCCCCCC (centres unmarked) [DS-001]
−3.74

**Q:** Provide one value: measured Zeta Potential of CCCCCCCCCC1(CCCCCC)OCC(CCCCN(CCCCO)CCCCC2COC(CCCCCC)(CCCCCCCCC)O2)O1 (centres unmarked) [KT-001]
**A:** −3.30

**Q:** Provide one value: measured Zeta Potential of CCCCCCCCC(CCCCCC)C(=O)OCCCN(CCCOC(=O)C(CCCCCC)CCCCCCCC)C(=S)NCCCN(CCC)CCC (centres unmarked) [TU-007]
**A:** −2.68

**Q:** Provide one value: measured Zeta Potential of CCCCCCCCC(CCCCCC)C(=O)OCCCN(CCCOC(=O)C(CCCCCC)CCCCCCCC)C(=S)NCCCNC(C)C (centres unmarked) [TU-008]
**A:** −1.07

**Q:** Provide one value: measured Zeta Potential of CCCCCCCCC(CCCCCC)C(=O)OCCCN(CCCOC(=O)C(CCCCCC)CCCCCCCC)C(=S)NCCCN1CCN(C)CC1 (centres unmarked) [TU-004]
**A:** −1.27

**Q:** Provide one value: measured Zeta Potential of CCCCCCCCC(CCCCCC)C(=O)OCCCCCCN(CCCCO)CCCCCCOC(=O)C(CCCCCC)CCCCCCCC (centres unmarked) [ALC-0315, reference compound]
**A:** −4.74
